Measured values drawn from the supplement of paper PMC8975748 for this set.

Tested on: Saccharomyces cerevisiae BY4741 SeMeCo community
Assay: z-score of subpopulation abundance vs DMSO median, subpopulation auxotrophic for H; higher = larger share of this subpopulation than in DMSO controls
Details: 10 µM; 24 h; SM minimal medium; subpopulation (auxotrophy): H
Structures can show the parent of a compound that is named as a salt.
MEASURED PARAMETER: z-score of subpopulation abundance

Worked cases, answers included:
# COMPOUND, TARGET UNDER TEST, z-score of subpopulation abundance
rows = [
    ("CCCN1CCCC[C@H]1C(=O)Nc1c(C)cccc1C", "Saccharomyces cerevisiae BY4741 SeMeCo community", -0.64),
    ("Cc1cc(=O)n(-c2ccccc2)n1C [Antipyrine]", "Saccharomyces cerevisiae BY4741 SeMeCo community", -1.04),
    ("O=C1CN(/N=C/c2ccc([N+](=O)[O-])o2)C(=O)N1", "Saccharomyces cerevisiae BY4741 SeMeCo community", -0.05),
    ("COCCCC/C(=N\\OCCN)c1ccc(C(F)(F)F)cc1 [Fluvoxamine maleate]", "Saccharomyces cerevisiae BY4741 SeMeCo community", -0.64),
    ("COCC1=C(C(=O)OC(C)OC(=O)OC(C)C)N2C(=O)[C@@H](NC(=O)/C(=N\\OC)c3csc(N)n3)[C@H]2SC1 (stereo not given in full)", "Saccharomyces cerevisiae BY4741 SeMeCo community", -0.09),
]

Req: Saccharomyces cerevisiae BY4741 SeMeCo community / z-score of subpopulation abundance / Cn1nnc(-c2ccc(-c3ccc(N4C[C@H](COP(=O)(O)O)OC4=O)cc3F)cn2)n1 [Tedizolid Phosphate] : value?
Resp: -0.61

Req: Then what about the compound NC[C@@H]1O[C@H](O[C@H]2[C@@H](O)[C@H](O[C@@H]3[C@@H](O)[C@H](N)C[C@H](N)[C@H]3O[C@H]3O[C@H](CN)[C@@H](O)[C@H](O)[C@H]3N)O[C@@H]2CO)[C@H](N)[C@@H](O)[C@@H]1O [Neomycin sulfate] ?
Resp: 0.56

Req: Queued: CCc1cccc2c3c([nH]c12)C(CC)(CC(=O)O)OCC3 (stereo not given)
Resp: -0.66
